Biological target: T1, human RANK-L (human, UniProt O14788 140-317, limits assumed)
T1 construct: Soluble protein, used coated, biotinylated or labelled in ELISA, AlphaScreen, FMAT and Biacore; also called hRANK-L; soluble human RANK-L
T1 sequence (looked up): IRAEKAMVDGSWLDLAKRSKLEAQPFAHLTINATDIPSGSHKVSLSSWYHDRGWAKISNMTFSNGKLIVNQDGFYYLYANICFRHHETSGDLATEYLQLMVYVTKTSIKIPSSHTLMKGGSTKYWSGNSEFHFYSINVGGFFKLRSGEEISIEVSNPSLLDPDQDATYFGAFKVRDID
Assay: AlphaScreen, biotin-hRANK-L / RANK-huFc beads
quantityMeasured: IC50 (nM)
Respond numerically; units are nM and should not be typed.

// RANKL9 (VHH, not shown: c-myc and His6 tags) VHH: EVQLVESGGGLVQAGGSLRLTCAASGRTFRSYAMGWFRQAPGKEREFVAAINYSGGSTNYADSVKGRFTISRDNAKNTLYLQMNSLEPEDTAVYYCAAGSGYASLSYYSTERAYTYWGQGTQVTVSS : IC50 value = 0.238

Form: binder = RANKL182biv (VHH, Bivalent Nanobody; also called RANKL18-20GS-RANKL18) EVQLVESGGGLVQAGGSLRLSCAASGRTFSRSAMGWFRQAPGKEREFVGFITGSGGTTYYGESVKGRFTISRDNAQNPVYLQMNSLKPEDTAVYYCGVYRRTYISSTYSESSEYDYWGQGTQVTVSSGGGGSGGGGSGGGGSGGGGSEVQLVESGGGLVQAGGSLRLSCAASGRTFSRSAMGWFRQAPGKEREFVGFITGSGGTTYYGESVKGRFTISRDNAQNPVYLQMNSLKPEDTAVYYCGVYRRTYISSTYSESSEYDYWGQGTQVTVSS ; IC50 = 0.089

Given item RANKL93biv (VHH, Bivalent Nanobody; also called RANKL9-30GS-RANKL9) EVQLVESGGGLVQAGGSLRLTCAASGRTFRSYAMGWFRQAPGKEREFVAAINYSGGSTNYADSVKGRFTISRDNAKNTLYLQMNSLEPEDTAVYYCAAGSGYASLSYYSTERAYTYWGQGTQVTVSSGGGGSGGGGSGGGGSGGGGSGGGGSGGGGSEVQLVESGGGLVQAGGSLRLTCAASGRTFRSYAMGWFRQAPGKEREFVAAINYSGGSTNYADSVKGRFTISRDNAKNTLYLQMNSLEPEDTAVYYCAAGSGYASLSYYSTERAYTYWGQGTQVTVSS , the value recorded as its IC50 is 0.066

Origin of measurements: patent US20110002929A1
